composite z-score values for the molecules below.
assay: compound binding in COS7 lysate, probe aLAP1, primary screen, cell lysate, small-molecule microarray (AID 1124); conditions: probe aLAP1, fluorescence, higher = more signal;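 further: lysate comes from COS7 cells expressing LAP1 and is applied at 0.3 µg/mL; score merges spot fluorescence near 667 nm with signal-to-noise over triplicate slides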
metric: composite z-score

{"molecule": "CCCCC=C[C@@H](NC(=O)Oc1cccc(C(F)(F)F)c1)c1ccccc1", "val": -0.403}
{"molecule": "CC(=O)NCCCC[C@@H]1NC(=O)[C@@H]2C[C@H](C(=O)NCCCCN(C)C)[C@H](c3cccc(OCCO)c3)N2C1=O", "val": 0.511}
{"molecule": "CCCCN1CC=CC23O[C@@H]4C=CCOC(=O)[C@@H]4[C@H]2C(=O)N(CCCCCO)[C@@H]3C1=O (some centres undefined)", "val": 1.3}
{"molecule": "CCOc1cc(C(O)C2C=CC3C(=O)N(c4ccccc4)C(=O)C3N2Nc2ccccc2)ccc1O (centres undefined)", "val": 0.791}

---

# composite z-score listing for each entry below
assay: binders from COS7 lysate, DM2A8 probe, primary screen, torsin A project, cell lysate, small-molecule microarray, fluorescence 635/667 (AID 1065); conditions: higher = more signal, COS7 lysate expressing mutant human TOR1A

{"molecule": "NC(=O)[C@@H]1[C@H]2C(=O)O[C@H](c3ccccc3)[C@H](c3ccccc3)N2[C@H](c2ccc(O)cc2)[C@@]12C(=O)Nc1ccc(C#CC3(O)CCCCCC3)cc12", "composite z-score": 0.167}
{"molecule": "O=C1OCCC/C=C\\[C@H]2OC34C=CCN(c5ccc6ccccc6c5)C(=O)[C@H]3N(CCCCCCO)C(=O)[C@@H]4C12 (some centres undefined)", "composite z-score": -0.295}
{"molecule": "O=C1C2C=CC(C(O)C(c3ccccc3)c3ccccc3)N(n3cnnc3)C2C(=O)N1Cc1ccccc1 (centres undefined)", "composite z-score": 0.488}
{"molecule": "O=C(NCc1ccc(F)cc1)[C@H]1C[C@H]2C(=O)N[C@@H](Cc3ccccc3)C(=O)N2[C@H]1c1ccc(O)cc1", "composite z-score": 0.949}
{"molecule": "[N-]=[N+]=NCc1ccccc1C[C@]1(C(=O)N2CCOCC2)N=C(c2ccc(OCCCO)cc2)O[C@H]1c1ccccc1N=[N+]=[N-]", "composite z-score": 1.43}
{"molecule": "CO[C@H]1O[C@H](CO)[C@@H](OC(=O)Nc2ccc(Br)cc2)[C@H](OC(=O)c2cc3ccccc3[nH]2)[C@H]1OC(=O)c1cc2ccccc2[nH]1", "composite z-score": 1.05}
{"molecule": "CCCCc1cn(C[C@H](Cc2ccccc2)NC(=O)N[C@H](CO)CCc2oc(C(C)=O)c(C(=O)OC)c2C(=O)OC)nn1", "composite z-score": 0.651}
{"molecule": "CC(C)c1ccc(NN2C(C(O)c3cc(C(F)(F)F)cc(C(F)(F)F)c3)C=CC3C(=O)N(c4ccccc4)C(=O)C32)cc1 (centres undefined)", "composite z-score": -0.165}
{"molecule": "CC(C)C(=C=CC[C@@H](O)c1ccccc1OCCO)CCO", "composite z-score": -0.193}
{"molecule": "O=C1C2C=CC(C(O)c3c(F)cccc3Cl)N(Nc3ccccc3)C2C(=O)N1c1ccccc1 (centres undefined)", "composite z-score": -0.0274}
{"molecule": "O=C1NC(=O)C2C1C=CC(C(O)c1cccc3ccccc13)N2Nc1ccccn1 (centres undefined)", "composite z-score": 0.143}
{"molecule": "C=CCOC(=O)[C@@H]1[C@H]2C(=O)O[C@H](c3ccccc3)[C@H](c3ccccc3)N2[C@H](c2ccc(OCCOC(=O)[C@@H]3C[C@@H]4C(=O)N5CCC[C@H]5C(=O)N4[C@@H]3c3ccc(O)cc3)cc2)[C@@]12C(=O)Nc1ccc(I)cc12", "composite z-score": -0.0315}
{"molecule": "COc1ccc([Si](C)(C)[C@H]2[C@H](CCO)O[C@@]3(C(=O)N(C)c4c(Br)cc(C)cc43)[C@@H]2C)cc1", "composite z-score": 0.325}
{"molecule": "COCCOC(=O)N1C(=O)[C@@]2(c3cc(C#CC4=CCCCC4)ccc31)[C@H](C(=O)N1CCc3cc(OC)c(OC)cc3C1)[C@H]1C(=O)O[C@H](c3ccccc3)[C@H](c3ccccc3)N1[C@@H]2c1ccc(OCCO)cc1", "composite z-score": 0.492}

---

Readings of composite z-score for the listed compounds
system: Inhibin beta A chain (activin A); assay: INHBA (activin A) binders on microarrays, primary screen, biochemical, small-molecule microarray, 635 nm fluorescence scan (AID 1107); conditions: small-molecule microarray binding, higher = more signal;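 further: mouse activin A protein probed at 4.33 µg/mL on printed slides; score merges bound-protein fluorescence near 667 nm with spot signal-to-noise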

{"compound": "O=C(C1N=C(c2ccc(OCCCO)cc2)N(c2ccccc2)O1)N1CCOCC1 (stereo not drawn)", "testedOn": "Inhibin beta A chain (activin A)", "composite z-score": 0.315}
{"compound": "COc1cc(OC)c(C(O)C2C=CC3C(=O)NC(=O)C3N2Nc2ccc(Cl)cc2Cl)cc1Br (stereo not drawn)", "testedOn": "Inhibin beta A chain (activin A)", "composite z-score": 0.312}
{"compound": "[N-]=[N+]=Nc1ccccc1C[C@]1(C(N)=O)N=C(c2ccc(OCCCO)cc2)O[C@H]1c1ccccc1", "testedOn": "Inhibin beta A chain (activin A)", "composite z-score": 0.511}
{"compound": "O=C1O[C@H](c2ccccc2)[C@H](c2ccccc2)N2[C@H]1[C@@H](C(=O)N1CCN(c3ncccn3)CC1)[C@]1(C(=O)Nc3ccc(C#CC4=CCCCC4)cc31)[C@H]2c1ccc(O)cc1", "testedOn": "Inhibin beta A chain (activin A)", "composite z-score": -0.0074}
{"compound": "CC[C@@H]1C=C(C(=O)O)[C@H](c2ccco2)N1S(=O)(=O)c1ccc(C)cc1", "testedOn": "Inhibin beta A chain (activin A)", "composite z-score": 1.23}
{"compound": "COC(=O)[C@@]1(Cc2ccccc2)[C@H]2c3cc(C(=O)N4CCCC4)n(Cc4cccc5ccccc45)c3C[C@H]2CN1C(=O)c1ccccc1", "testedOn": "Inhibin beta A chain (activin A)", "composite z-score": 1.07}
{"compound": "O=C(NCc1ccc(F)cc1)[C@H]1C[C@H]2C(=O)N[C@@H](Cc3ccccc3)C(=O)N2[C@H]1c1ccc(O)cc1", "testedOn": "Inhibin beta A chain (activin A)", "composite z-score": -0.266}
{"compound": "COCCOC(=O)N1C(=O)[C@@]2(c3cc(C#Cc4ccc(OC)cc4)ccc31)[C@H](C(N)=O)[C@H]1C(=O)O[C@H](c3ccccc3)[C@H](c3ccccc3)N1[C@@H]2c1ccccc1OCCO", "testedOn": "Inhibin beta A chain (activin A)", "composite z-score": 0.312}
{"compound": "CN(C)CCCCCCNC(=O)[C@@H]1C[C@@H]2C(=O)N[C@@H](CCCCN)C(=O)N2[C@@H]1c1cccc(OCCO)c1", "testedOn": "Inhibin beta A chain (activin A)", "composite z-score": 1.55}
{"compound": "N#Cc1ccc(NN2C(C(O)c3c(F)cccc3Cl)C=CC3C(=O)N(c4ccccc4)C(=O)C32)cc1 (stereo not drawn)", "testedOn": "Inhibin beta A chain (activin A)", "composite z-score": 0.5}
{"compound": "COc1ccc(C(=O)Nc2ccc(CN3C(=O)[C@@]4(O[C@@H](CC(=O)N5CCC[C@H]5CO)[C@H]([Si](C)(C)c5ccc(OC)cc5)[C@H]4C)c4ccccc43)cc2)cc1", "testedOn": "Inhibin beta A chain (activin A)", "composite z-score": 0.715}
{"compound": "CCc1oc(CC[C@@H](CO)NC(=O)NCCn2cc(C3(O)CCCCC3)nn2)c(C(=O)OC)c1C(=O)OC", "testedOn": "Inhibin beta A chain (activin A)", "composite z-score": 0.289}
{"compound": "CC(C)(C)OC(=O)CC[C@@]12N=C(c3ccc(OCCCO)cc3)O[C@@H]1c1ccccc1N(CCS(=O)(=O)c1ccccc1)C2=O", "testedOn": "Inhibin beta A chain (activin A)", "composite z-score": 1.05}
{"compound": "COCCOC(=O)N1C(=O)[C@@]2(c3cc(C#CC4(O)CCCCCC4)ccc31)[C@H](c1ccc(O)cc1)N1[C@H](c3ccccc3)[C@H](c3ccccc3)OC(=O)[C@H]1[C@@H]2C(=O)Nc1nc2ccccc2s1", "testedOn": "Inhibin beta A chain (activin A)", "composite z-score": 1.33}
{"compound": "C=CCC(OC(C)=O)[C@@H]1[C@@H](N(Cc2ccc(-c3ccccc3)cc2)C(=O)Cc2ccc(F)cc2)c2cc(OCCCO)ccc2N1C(=O)c1ccc(-c2ccccc2)cc1 (stereo partly drawn)", "testedOn": "Inhibin beta A chain (activin A)", "composite z-score": 0.778}
{"compound": "COCCCN1C(=O)[C@@]2(Cc3ccccc31)c1ccccc1C(=O)N(Cc1ccccc1C(F)(F)F)[C@H]2c1ccc(CO)cc1", "testedOn": "Inhibin beta A chain (activin A)", "composite z-score": 0.915}
{"compound": "CC(C)C[C@@H]1NC(=O)[C@H]2C[C@@H](C(=O)NCCCCCCN)[C@@H](c3ccc(O)cc3)N2C1=O", "testedOn": "Inhibin beta A chain (activin A)", "composite z-score": 1.23}
{"compound": "CC(C)N1C(=O)c2ccccc2[C@](C)(C(=O)NCc2ccccc2)[C@@H]1c1ccc(CO)cc1", "testedOn": "Inhibin beta A chain (activin A)", "composite z-score": 0.288}
{"compound": "O=C1c2ccccc2[C@](Cc2ccccc2I)(C(=O)NC2CC2)[C@H](c2ccc(CO)cc2)N1C1CCCCC1", "testedOn": "Inhibin beta A chain (activin A)", "composite z-score": 0.435}
{"compound": "COc1cc2c(cc1OC)CN(C(=O)[C@H]1[C@@H]3C(=O)O[C@@H](c4ccccc4)[C@@H](c4ccccc4)N3[C@@H](c3ccc(O)cc3)[C@]13C(=O)Nc1ccc(C#CCNC(N)=O)cc13)CC2", "testedOn": "Inhibin beta A chain (activin A)", "composite z-score": 0.544}
{"compound": "O=C1C2C=CC(C(O)C(c3ccccc3)c3ccccc3)N(n3cnnc3)C2C(=O)N1Cc1ccccc1 (stereo not drawn)", "testedOn": "Inhibin beta A chain (activin A)", "composite z-score": 0.581}
{"compound": "CCOC(=O)C[C@H]1[C@H](OC(=O)c2cc3ccccc3oc2=O)[C@@H](NC(=O)C2CCCCC2)c2cc(OCCCO)ccc2N1C(=O)c1ccccc1", "testedOn": "Inhibin beta A chain (activin A)", "composite z-score": 0.707}
{"compound": "C=CC[C@@]1(C(=O)N(C)C)N=C(c2ccc(OCCCO)cc2)O[C@@H]1c1ccccc1N=[N+]=[N-]", "testedOn": "Inhibin beta A chain (activin A)", "composite z-score": 0.636}
{"compound": "COc1ccc([C@H]2OC[C@@H]3CC4(CC=CC4)C(=O)N32)cc1", "testedOn": "Inhibin beta A chain (activin A)", "composite z-score": 1.25}
{"compound": "COc1ccc(CCNC(=O)[C@@]2(C)c3ccccc3C(=O)N(Cc3cc(F)cc(C(F)(F)F)c3)[C@H]2c2ccc(CO)cc2)cc1", "testedOn": "Inhibin beta A chain (activin A)", "composite z-score": -0.0094}
{"compound": "CC1CC/C=C\\[C@H]2OC34C=CCN(c5ccc(Cl)cc5)C(=O)[C@H]3N(CCO)C(=O)[C@]4(C)C2C(=O)O1 (stereo partly drawn)", "testedOn": "Inhibin beta A chain (activin A)", "composite z-score": 1.27}
{"compound": "O=C(NCc1ccccc1)[C@@H]1c2ccccc2C(=O)N(CC23CC4CC(CC(C4)C2)C3)[C@H]1c1ccc(CO)cc1", "testedOn": "Inhibin beta A chain (activin A)", "composite z-score": 0.147}
{"compound": "CC(C)c1ccc(NN2C(C(O)c3cc(C(F)(F)F)cc(C(F)(F)F)c3)C=CC3C(=O)N(c4ccccc4)C(=O)C32)cc1 (stereo not drawn)", "testedOn": "Inhibin beta A chain (activin A)", "composite z-score": 0.655}
